Hello, the source for this data is the supplement of paper PMC10681739, in case you need it.

assay-system: RUNX1 (UniProt Q01196)
Sequence (Q01196 whole entry): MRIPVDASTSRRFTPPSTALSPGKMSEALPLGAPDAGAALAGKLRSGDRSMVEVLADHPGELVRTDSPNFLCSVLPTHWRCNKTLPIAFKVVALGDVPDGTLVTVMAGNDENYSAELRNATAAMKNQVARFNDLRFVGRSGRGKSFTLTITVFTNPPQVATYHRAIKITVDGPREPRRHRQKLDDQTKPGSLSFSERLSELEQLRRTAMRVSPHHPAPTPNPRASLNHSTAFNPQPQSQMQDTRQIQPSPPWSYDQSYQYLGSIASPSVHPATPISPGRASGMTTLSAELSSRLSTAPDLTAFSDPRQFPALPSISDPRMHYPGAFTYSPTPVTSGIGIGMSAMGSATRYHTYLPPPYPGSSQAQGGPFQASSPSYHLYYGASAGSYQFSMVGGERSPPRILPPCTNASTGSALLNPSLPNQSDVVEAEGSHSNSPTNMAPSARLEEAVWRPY
experiment: RUNX1 binding intensity (PBM fluorescence), RUNX1 alone (arbitrary fluorescence units); higher = stronger binding;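 note: Full-length recombinant human RUNX1 bound to double-stranded 36-bp genomic probes on a high-density microarray, scored as Alexa488 fluorescence per spot via anti-RUNX1 antibody, median of four replicate spots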
assay-setup: RUNX1 concentration 2 nM; ETS1 concentration 0 nM
The following sequences are shown together with reported RUNX1 binding intensity values.
// no unit string in output, number only

Guide cases for RUNX1 binding intensity, answers given:
[[record]]
entry_sequence = "CTGTCATCTTCCTGACAGCACGCCCACAAAGGACCA"
assay_system = "RUNX1 (UniProt Q01196)"
recorded_result = 843

[[record]]
entry_sequence = "TGCGCCGGGAGGAAGGGCTCCAAAACCACAGGGCGG"
assay_system = "RUNX1 (UniProt Q01196)"
recorded_result = 900

[[record]]
entry_sequence = "GGCTGGCCTAGGAACTTCCGCCACAAGTCCCGCCCC"
assay_system = "RUNX1 (UniProt Q01196)"
recorded_result = 822


Form field: reported RUNX1 binding intensity of GCCACTATTTCCTGCCTTCTGCGGCTGAGAGTCCCA 1220

Endpoint output: RUNX1 binding intensity of AGGTCGCCCTCCGGATGCGGTCCCCACACCGCCTGC . Value? 857

Endpoint output: RUNX1 binding intensity of GCAGCTCTGGCAGGATGCGGTTAAATATGTATCCAC . Value? 1920
